Tested on: Saccharomyces cerevisiae
Assay: protein stability index of tFT-peptide fusion (C-terminal peptide) (PSI (0-1 scale)); higher = more stable (slower turnover)
Settings: genetic background: wild type; temperature: 30 C
Consider the following sequences; for each one, report its protein stability index.
Numbers only.

>>> numeric_result("TEFEKIHRNTFN [REX4 C-terminal 12 aa]")
0.723

Could you tell me protein stability index for each of these sequences? They are listed below.
1. VQHDPSVHTNQL [MAE1 C-terminal 12 aa]
2. WQDFVPDEHISQ [VPS501 C-terminal 12 aa]
3. VASSTEQLLQEM [DYN1 C-terminal 12 aa]
4. EGEYADNVEPLA [PRY1 C-terminal 12 aa]
5. HELESINSGGAW [YMR31 C-terminal 12 aa]
6. SDAVAEANDIDD [TOM20 C-terminal 12 aa]
7. KEEEGSFNNVIG [PRE2 C-terminal 12 aa]

[reply]
1. 0.664
2. 0.792
3. 0.693
4. 0.685
5. 0.689
6. 0.72
7. 0.66

Could you tell me protein stability index for each of these sequences? They are listed below.
1. DIYEIRGTALDD [DSL1 C-terminal 12 aa]
2. VSLKKGKLKAHC [YAP7 C-terminal 12 aa]
3. SSVKKKLYPKSK [RIM11 C-terminal 12 aa]
4. DKKVNNNIILFL [YAL037C-A C-terminal 12 aa]
5. SVLSGSAEFVFY [NCA3 C-terminal 12 aa]

[reply]
0.699
0.692
0.693
0.704
0.715

Could you tell me protein stability index for each of these sequences? They are listed below.
1. LENTLKDSGVLQ [GPA2 C-terminal 12 aa]
2. HRDIVSAGSLYL [MTR4 C-terminal 12 aa]
3. VQCVCFNVEMRL [YIL046W-A C-terminal 12 aa]
4. SGSRVVRKLFEL [FUS2 C-terminal 12 aa]
5. LPEPNFFRKAAF [AXL1 C-terminal 12 aa]

[reply]
[0.717, 0.7, 0.676, 0.7, 0.7]

Could you tell me protein stability index for each of these sequences? They are listed below.
1. LLRPPKPPLFCC [YGL123C-A C-terminal 12 aa]
2. GNISLLYSQGRL [RSC6 C-terminal 12 aa]
3. ALEEALMDRLQF [ATG29 C-terminal 12 aa]
4. TILHQQVNSKLH [YHR180W C-terminal 12 aa]
5. QQSPHPVVDNDK [KIP2 C-terminal 12 aa]
6. LADSKHCSGLHK [ASF2 C-terminal 12 aa]

[reply]
1. 0.418
2. 0.714
3. 0.695
4. 0.627
5. 0.682
6. 0.703

Could you tell me protein stability index for each of these sequences? They are listed below.
1. DQFQKVEKSIVK [RRF1 C-terminal 12 aa]
2. KTLWSRFIEHFV [MIM2 C-terminal 12 aa]
3. NTAKATYDLYTN [GPI8 C-terminal 12 aa]
4. KSLWDYVKKNTE [TAF14 C-terminal 12 aa]
5. NNLQSFYFDNSN [BCK2 C-terminal 12 aa]
6. IRYSMPYRLASN [YLR264C-A C-terminal 12 aa]

[reply]
1: 0.675; 2: 0.671; 3: 0.67; 4: 0.712; 5: 0.706; 6: 0.648

Could you tell me protein stability index for each of these sequences? They are listed below.
1. SSEEGYYIAGSI [IRC23 C-terminal 12 aa]
2. KWQARQRGLQRF [PMP1 C-terminal 12 aa]
3. FPCAGSAMGSLT [YMR103C C-terminal 12 aa]
4. GYETAIHYLRMY [TPC1 C-terminal 12 aa]

[reply]
0.81
0.704
0.684
0.393

Could you tell me protein stability index for each of these sequences? They are listed below.
1. ATVSKIIKLDRK [MYO4 C-terminal 12 aa]
2. ISQWREWIDEKL [SRP102 C-terminal 12 aa]
3. FFLRSAAVYQPF [YPR197C C-terminal 12 aa]
4. NDITLAVYTSAQ [EGO2 C-terminal 12 aa]

[reply]
1: 0.691; 2: 0.72; 3: 0.681; 4: 0.651

Could you tell me protein stability index for each of these sequences? They are listed below.
1. TSPKESFFKEVI [LPX2 C-terminal 12 aa]
2. TTPTLPTFRTVA [FKS3 C-terminal 12 aa]
3. FVLPTWAAKELN [SPE3 C-terminal 12 aa]
4. MKDFSKNEQKEK [SEY1 C-terminal 12 aa]
5. REGVVPPVGITN [EGO4 C-terminal 12 aa]
6. ESSAFEYPGGRL [BOI1 C-terminal 12 aa]

[reply]
0.711
0.697
0.69
0.72
0.66
0.69

---

Consider the following sequences; for each one, report its protein stability index.
Tested on: Saccharomyces cerevisiae
Assay: protein stability index of tFT-peptide fusion (C-terminal peptide) (PSI (0-1 scale)); higher = more stable (slower turnover)
Conditions: genetic background: das1 deletion; temperature: 30 C
Give bare numbers.

Answered cases to consult:
>>> numeric_result("GAICCFCCYLVF")
0.505
>>> numeric_result("AEVLCEIVIALR")
0.485
>>> numeric_result("CLSGPFRSLAVF")
0.485
>>> numeric_result("VLLVSVFVATLL")
0.143

Could you tell me protein stability index for each of these sequences? They are listed below.
1. IERLRLRTRIIC
2. PPLTRVPLSISA
3. YVCVVSVLLGLL
4. MRGPAWVCVLYS
5. TVERKMYWQRWG
6. FFRVCNALLLVC
7. LLGGRVLWAWRV
8. MFLHLGLFIMSH

[reply]
[0.423, 0.292, 0.24, 0.59, 0.641, 0.148, 0.626, 0.303]

Could you tell me protein stability index for each of these sequences? They are listed below.
1. CVLLVFLHLCLA
2. RFKEKVSIIHKQ
3. RRRRHVDHSTQR
4. VSRVHIRIEGNH
5. VIRSIVSAYMIC

[reply]
1. 0.283
2. 0.693
3. 0.542
4. 0.622
5. 0.563

Could you tell me protein stability index for each of these sequences? They are listed below.
1. AFFRCKCYVGTP
2. GCVVLNTVAFIC

[reply]
0.502
0.448

---

Tested on: Saccharomyces cerevisiae
Assay: protein stability index of tFT-peptide fusion (C-terminal peptide) (PSI (0-1 scale)); higher = more stable (slower turnover)
Conditions: genetic background: wild type; temperature: 37 C
property name: protein stability index
One number for each entry.

>>> numeric_result("FLPFRVFNFSLV")
0.441
>>> numeric_result("GPVRTEFWLYVW")
0.626
>>> numeric_result("VVLCQVCVLWGW")
0.229
>>> numeric_result("LDLSSLRCRYLL")
0.427
>>> numeric_result("KLLISLTWFCVL")
0.334

Could you tell me protein stability index for each of these sequences? They are listed below.
1. HANPGTFGPCTR
2. VYFRYWLLVVVF
3. PFLLLVSPISSC
4. FLLGWFLFFVCS
5. SRRCGLFVFILF
6. AVSFVTLSIMVM
7. PGFCFFLYYCMM
8. GAVGRWGWVSFV

[reply]
[0.683, 0.15, 0.445, 0.393, 0.471, 0.122, 0.533, 0.638]

Could you tell me protein stability index for each of these sequences? They are listed below.
1. LILRVLFLFEPC
2. FYPFHVFCLLIF
3. SPIGIFCFILCR
4. VSRVHIRIEGNH
5. GNIHHTRFLALL
6. SVVWIRFVGVRV

[reply]
[0.481, 0.228, 0.157, 0.701, 0.693, 0.499]

---

Tested on: Saccharomyces cerevisiae
Assay: protein stability index of tFT-peptide fusion (C-terminal peptide) (PSI (0-1 scale)); higher = more stable (slower turnover)
Settings: genetic background: wild type; temperature: 37 C
Could you label it met if measured protein stability index is 0.5 or higher, and not met otherwise?

>>> classification("IDLVAFCTIFAL")
"not met"

[ask] Can "LDVGGRRGGEHC" be said to have protein stability index at or above 0.5?
[reply] met

---

Tested on: Saccharomyces cerevisiae
Assay: protein stability index of tFT-peptide fusion (C-terminal peptide) (PSI (0-1 scale)); higher = more stable (slower turnover)
Settings: genetic background: wild type; temperature: 30 C
property name: protein stability index

>>> result("CVLLVFLHLCLA")
0.381
>>> result("RVWFWSGRGGEF")
0.709
>>> result("WRCECELASACA")
0.431

Could you tell me protein stability index for each of these sequences? They are listed below.
1. SKITENTKKKGK
2. PCAFSLPPLQIP
3. VSRRCVALRVGN

[reply]
1. 0.658
2. 0.7
3. 0.579

---

Test system: Saccharomyces cerevisiae
Assay: protein stability index of tFT-peptide fusion (C-terminal peptide) (PSI (0-1 scale)); higher = more stable (slower turnover)
Details: genetic background: wild type; temperature: 30 C
property name: protein stability index
Numbers only.

Answered cases to consult:
>>> numeric_result("VKNWSKSILGFN [MSC1 C-terminal 12 aa]")
0.666
>>> numeric_result("AGSSKFLKGAKI [MRS1 C-terminal 12 aa]")
0.673
>>> numeric_result("LLKQLKQGKISV [NOT3 C-terminal 12 aa]")
0.648
>>> numeric_result("FDIKKANSATLA [TMA46 C-terminal 12 aa]")
0.634
>>> numeric_result("TLIAAGIIRTGR [STI1 C-terminal 12 aa]")
0.702

Could you tell me protein stability index for each of these sequences? They are listed below.
1. ISLLSQFVYKGK [EXO1 C-terminal 12 aa]
2. AAVAKQKVSDSK [DHR2 C-terminal 12 aa]
3. KLRAKRLAKGGR [RPG1 C-terminal 12 aa]
4. QTDGMGLVSWWE [RPC25 C-terminal 12 aa]

[reply]
1: 0.678; 2: 0.654; 3: 0.705; 4: 0.749

Could you tell me protein stability index for each of these sequences? They are listed below.
1. AINEGHEGFGLA [TOM1 C-terminal 12 aa]
2. FVKTIADTLSFS [PRR1 C-terminal 12 aa]
3. QSPLMDMLAPQL [TOM6 C-terminal 12 aa]
4. GLVGQHQGGGSM [RTC5 C-terminal 12 aa]
5. EEAREEFENIAL [SMI1 C-terminal 12 aa]
6. TKLGEQRHLCTD [ESL2 C-terminal 12 aa]

[reply]
0.687
0.706
0.712
0.663
0.645
0.7

Could you tell me protein stability index for each of these sequences? They are listed below.
1. IDDINNDKWLVI [PSK1 C-terminal 12 aa]
2. KRLIGIAEATLN [SEC31 C-terminal 12 aa]
3. WYLQSVNLRDGV [HOL1 C-terminal 12 aa]
4. TLDRASNCWRGT [YBL006W-A C-terminal 12 aa]
5. LIWELGDGQSGQ [INO4 C-terminal 12 aa]
6. MSLMRKAYHFWC [BAP2 C-terminal 12 aa]
7. FTPSYIPEPVLL [YOR161W-B C-terminal 12 aa]
8. EIAADDTKKQEK [SOK2 C-terminal 12 aa]

[reply]
[0.688, 0.667, 0.688, 0.714, 0.718, 0.619, 0.654, 0.684]
